// reported melting point for each item listed

Please review the entries below; each comes with its answer.
> print(dat)
                               input.smiles      test.result
1  COc1c2c(c(O)c3c1C(=O)c1c(cc(O)c(C)c1O)C3=O)-c1c(cc3cnn(CCO)c(=O)c3c1O)CC2         > 300 °C
2  CCCn1ncc2cc3c(c(O)c2c1=O)-c1c(O)c2c(c(OC)c1CC3)C(=O)c1c(cc(O)c(C)c1O)C2=O    350 to 351 °C
3  COc1c2c(c(O)c3c1C(=O)c1c(cc(O)c(C)c1O)C3=O)-c1c(cc3cnn(-c4ncc[nH]4)c(=O)c3c1O)CC2  > 350 °C (dec.)
4  Cc1c(O)cc2c(c1O)C(=O)c1c(O)c3c(c(O)c1C2=O)-c1c(cc2cnn(-c4ccccn4)c(=O)c2c1O)CC3         > 350 °C
5  COc1c2c(c(O)c3c1C(=O)c1c(cc(O)c(C)c1O)C3=O)-c1c(cc3cnn(CCOC(C)=O)c(=O)c3c1O)CC2         > 350 °C

Asked: Quick check: melting point of COC(=O)Oc1cc2c(c(O)c1C)C(=O)c1c(OC)c3c(c(O)c1C2=O)-c1c(cc2cnn(-c4ccccc4)c(=O)c2c1O)CC3 ?
Given back: > 350 °C

Asked: State the recorded melting point for this entry: Cc1c(O)cc2c(c1O)C(=O)c1c(O)c3c(c(O)c1C2=O)-c1c(cc2cnn(-c4ccccc4)c(=O)c2c1O)CC3
Given back: > 350 °C

Asked: Return reported melting point; argument: C=CCc1cc2c(c(O)c1C)C(=O)c1c(OC)c3c(c(O)c1C2=O)-c1c(cc2cnn(-c4ccccc4)c(=O)c2c1O)CC3
Given back: 163 °C

Reference source for all entries: patent US6440968B1
